Target: VEGF-A (Homo sapiens)
Construct: purchased ProQinase GmbH
Sequence (P15692 27-191 isoform P15692-4): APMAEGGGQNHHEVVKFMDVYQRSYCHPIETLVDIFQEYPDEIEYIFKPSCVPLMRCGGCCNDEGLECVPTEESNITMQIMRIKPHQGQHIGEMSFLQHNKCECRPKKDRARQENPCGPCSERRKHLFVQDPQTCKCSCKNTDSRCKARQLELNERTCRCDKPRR
Assay: VEGF-A induced sprouting of HUVEC, spheroid-based cellular angiogenesis assay
Type: cell-based
Conditions: VEGF-A 25 ng/mL preincubated with compound, 24 h, read-out: VEGF-A1 IC50
Measured quantity: IC50 (µM)
Express it in µM; write the number only.

The following compounds have reported results that may help.
>>> print(df.to_string())
                                   compound                 target  numeric_value
0  O=C(O)c1cc(O)c(C(=O)Nc2cccc(-c3nnn[nH]3)c2)cc1O [Ia-002a-Tz]  VEGF-A (Homo sapiens)             57
1  O=C(O)c1cc(O)c(C(=O)NC(C(=O)O)c2ccc(O)c(O)c2)cc1O (stereo not drawn) [Ia-036a]  VEGF-A (Homo sapiens)            123
2  O=C(O)c1ccc(C(=O)O)c(NC(=O)c2cc(O)cc(C(=O)O)c2O)c1 [IIa-012a]  VEGF-A (Homo sapiens)             32
3  O=C(O)c1cc(O)c(C(=O)NCc2ccccc2C(=O)O)cc1O [Ia-053a]  VEGF-A (Homo sapiens)            210

Query block: Using VEGF-A (Homo sapiens) as the test system, report measured IC50 of O=C(Nc1ccc(O)cc1C(=O)O)c1cc(O)c(C(=O)Nc2ccc(O)cc2C(=O)O)cc1O [Ic-009a] .
Result block: 208

Query block: State, for VEGF-A (Homo sapiens), measured IC50 of the compound listed here: CCOC(=O)c1cc(O)c(C(=O)Nc2ccccc2C(=O)OCC)cc1O [Ia-001a-E2]
Result block: 123

Query block: Quote IC50 with test system VEGF-A (Homo sapiens) for O=C(O)c1cc(NC(=O)c2cc(O)c(C(=O)Nc3ccc(O)c(C(=O)O)c3)cc2O)ccc1O [Ic-007a]
Result block: 3.2

----------
tested on: acute pancreatitis murine model; experiment: Caerulein-induced acute pancreatitis murine model; type: in vivo, Balb/c mice; design: unit not given here; conditions: 1st experiment; terminal serum; 15 mg/kg IV, Ib-010a and IVc-059a 150 mg/kg PO, Pirfenidone 40 mg/kg IV
The label is true (1) for Serum TGF-B level below 6 and false (0) for Serum TGF-B level equal to or exceeding 6.

// known answers, use as guide
In [3]: df
Out[3]:
                                   compound  group_label
0  O=C(O)c1cc(O)cc(CS(=O)(=O)Cc2cc(O)cc(C(=O)O)c2O)c1O [IVc-059a]     true (1)
1  O=C(O)c1cc(NC(=O)c2cc(O)c(C(=O)Nc3ccccc3-c3nnn[nH]3)cc2O)ccc1O [Ic-001a-Tz/004a]    false (0)
2  O=C(O)c1cc(O)c(C(=O)Nc2ccccc2-c2nnn[nH]2)cc1O [Ia-001a-Tz]    false (0)
3  Cc1ccc(=O)n(-c2ccccc2)c1 [pirfenidone, reference compound]     true (1)
4  O=C(O)c1cc(NC(=O)c2cc(O)c(C(=O)O)cc2O)cc(NC(=O)c2cc(O)c(C(=O)O)cc2O)c1 [Ib-010a]    false (0)

Query block: Serum TGF-B level strictly < 6 for this compound? O=C(O)c1cc(O)c(C(=O)Nc2ccccc2C(=O)O)cc1O [Ia-001a]
Result block: false (0)

Query block: Find out if reported Serum TGF-B level for O=C(O)c1cc(O)c(CN(Cc2cc(O)c(C(=O)O)cc2O)Cc2cc(O)c(C(=O)O)cc2O)cc1O [IIIc-061a] is less than 6
Result block: true (1)
